Target: dopamine D2-receptors (Rattus norvegicus, UniProt P61169)
Sequence (P61169 whole entry): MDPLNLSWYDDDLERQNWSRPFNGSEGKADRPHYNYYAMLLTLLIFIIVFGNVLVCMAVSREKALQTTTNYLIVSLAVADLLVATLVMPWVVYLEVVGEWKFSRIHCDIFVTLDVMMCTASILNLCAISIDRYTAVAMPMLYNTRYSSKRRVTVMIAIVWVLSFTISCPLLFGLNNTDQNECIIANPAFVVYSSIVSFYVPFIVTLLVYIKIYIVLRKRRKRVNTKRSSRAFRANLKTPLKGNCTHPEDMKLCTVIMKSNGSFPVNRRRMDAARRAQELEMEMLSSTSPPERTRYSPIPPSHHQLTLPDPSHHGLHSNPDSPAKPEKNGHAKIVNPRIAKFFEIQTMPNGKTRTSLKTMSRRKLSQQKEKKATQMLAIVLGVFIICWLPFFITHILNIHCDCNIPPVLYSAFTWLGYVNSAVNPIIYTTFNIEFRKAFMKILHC
Test: affinity for dopamine D2-receptors by displacement experiments with [3H]-spiperone (rat striatum membranes)
Assay type: binding
Conditions: relative affinity for dopamine-D2 receptors compared with α2-adrenoceptors; the higher, the higher the D2/α2 selectivity
From the text: 1Determining the affinity for dopamine D2-receptors by displacement experiments with [^3 H]-spiperone (Modified Method of W. Billard et al., Life Sci. 35, 1885 (1984) and D. J. de Vries and P. M. Beart, Eur. J. Pharmacol. 109, 417 (1985)) Male rats (of the Chbb:Thom strain weighing about 200 g) were killed by a blow to the back of the neck. The brains were removed and dissected on ice. […]
Assign met whenever α2-IC50 / D2-Ki does not fall below 200; assign not met whenever it does.

Look over these answered cases.
compound	classification
N#Cc1ccc(C=CCN2CCc3nc(N)sc3CC2)cc1 [Example 14b]	not met
Cc1cccnc1C=CCN1CCc2nc(N)sc2CC1 [Example 11i]	met
Nc1nc2c(s1)CCN(CC=Cc1ccccc1N1CCCCC1)CC2 [Example 11p]	met

(Q) Tell me whether α2-IC50 / D2-Ki is at least 200 here: `Nc1nc2c(s1)CCN(CC=Cc1ccccc1N)CC2`
(A) met

(Q) Tell me whether α2-IC50 / D2-Ki is at least 200 here: Nc1nc2c(s1)CCN(CCc1ccccc1)CC2 [Compound C, reference compound]
(A) not met

(Q) Tell me whether α2-IC50 / D2-Ki is at least 200 here: `Nc1nc2c(s1)CCN(CC=Cc1ccccc1[N+](=O)[O-])CC2`
(A) not met

(Q) Tell me whether α2-IC50 / D2-Ki is at least 200 here: `Nc1nc2c(s1)CCN(CC=Cc1ccccc1O)CC2`
(A) met

(Q) Tell me whether α2-IC50 / D2-Ki is at least 200 here: `Nc1nc2c(s1)CCN(CC=Cc1cccc(OCc3ccccc3)c1)CC2`
(A) met

(Q) Tell me whether α2-IC50 / D2-Ki is at least 200 here: Nc1nc2c(s1)CCN(CC=Cc1cc3ccccc3cn1)CC2 [Example 24a]
(A) met

(Q) Tell me whether α2-IC50 / D2-Ki is at least 200 here: `Cl.Cl.Nc1nc2c(s1)CCN(CCCc1ccccc1)CC2`
(A) not met

---

Molecular target: dopamine D2-receptors (Rattus norvegicus)
Assay: affinity for dopamine D2-receptors by displacement experiments with [3H]-spiperone (rat striatum membranes)
Conditions: [3H]-spiperone; high-affinity form of the dopamine receptor
Description: 1Determining the affinity for dopamine D2-receptors by displacement experiments with [^3 H]-spiperone (Modified Method of W. Billard et al., Life Sci. 35, 1885 (1984) and D. J. de Vries and P. M. Beart, Eur. J. Pharmacol. 109, 417 (1985)) Male rats (of the Chbb:Thom strain weighing about 200 g) were killed by a blow to the back of the neck. The brains were removed and dissected on ice. […]
Reported log10 of Ki values for a set of compounds
Short version: log10 scale, Ki, nM.

compound	recordedMeasurement
Nc1nc2c(s1)CCN(CC#Cc1ccccc1)CC2 [Example 4d]	1.00

(Q) Form field: log10 of Ki recorded for Nc1nc2c(s1)CCN(CC=Cc1nccc3ccccc13)CC2 [Example 7a] with dopamine D2-receptors (Rattus norvegicus) (enter value)
(A) -0.04

(Q) Form field: log10 of Ki recorded for Nc1nc2c(s1)CCN(CC=Cc1ccccn1)CC2 [Example 11a] with dopamine D2-receptors (Rattus norvegicus) (enter value)
(A) 0.63

(Q) Form field: log10 of Ki recorded for C=CCN1CCc2nc(N)sc2CC1 [Compound A, reference compound] with dopamine D2-receptors (Rattus norvegicus) (enter value)
(A) 0.70

---

Biological target: dopamine D2-receptors (Rattus norvegicus, UniProt P61169)
Experiment: affinity for dopamine D2-receptors by displacement experiments with [3H]-spiperone (rat striatum membranes)
Conditions: [3H]-spiperone; high-affinity form of the dopamine receptor
Reported pKi values for a set of molecules
Keep in mind that pKi stands for -log10 of concentration in molar terms.

Worked examples, 3 molecules total:
molecule	attributeMeasured	recordedMeasurement
Nc1nc2c(s1)CCN(CC=Cc1ccc(Cl)cc1)CC2 [Example 3a]	pKi	8.15
COc1cccc(C=CCN2CCc3nc(N)sc3CC2)c1OC [Example 4o]	pKi	8.89
Nc1nc2c(s1)CCN(CC=Cc1cc3ccccc3cn1)CC2 [Example 24a]	pKi	8.77

(Q) Entry under review: Nc1nc2c(s1)CCN(CC=Cc1ccccc1Cl)CC2 [Example 4e] . Reported pKi?
(A) 8.52

(Q) Entry under review: Nc1nc2c(s1)CCN(CC=Cc1ccccc1N)CC2 [Example 16] . Reported pKi?
(A) 8.85

---

Molecular target: dopamine D2-receptors (Rattus norvegicus)
Experiment: affinity for dopamine D2-receptors by displacement experiments with [3H]-spiperone (rat striatum membranes)
Format: binding
Details: relative affinity for dopamine-D2 receptors compared with α2-adrenoceptors; the higher, the higher the D2/α2 selectivity
attributeMeasured: α2-IC50 / D2-Ki
The response must contain the number and no unit.

Worked examples, 5 compounds total:
compound	recordedMeasurement
Nc1nc2c(s1)CCN(CC(=Cc1ccccc1)c1ccccc1)CC2 [Example 8o]	235
Nc1nc2c(s1)CCN(CC=Cc1cccc(Cl)n1)CC2 [Example 11]	256
Nc1nc2c(s1)CCN(CC=Cc1cccc3ccccc13)CC2 [Example 4t]	148
Nc1nc2c(s1)CCN(CC=Cc1nccc3ccccc13)CC2 [Example 7a]	3370
Nc1nc2c(s1)CCN(CC#Cc1ccccn1)CC2 [Example 10]	882

(Q) Entry under review: Nc1nc2c(s1)CCN(CC=Cc1ccccc1Cl)CC2 [Example 4e] . Reported α2-IC50 / D2-Ki?
(A) 63

(Q) Entry under review: Nc1nc2c(s1)CCN(CC#Cc1ccccc1)CC2 [Example 4d] . Reported α2-IC50 / D2-Ki?
(A) 89

(Q) Entry under review: Nc1nc2c(s1)CCN(CC=Cc1ccccn1)CC2 [Example 11a] . Reported α2-IC50 / D2-Ki?
(A) 176

(Q) Entry under review: Nc1nc2c(s1)CCN(CC=Cc1ccc3ccccc3c1)CC2 [Example 4u] . Reported α2-IC50 / D2-Ki?
(A) 318

(Q) Entry under review: Nc1nc2c(s1)CCN(CC=Cc1ccc(Cl)cc1)CC2 [Example 3a] . Reported α2-IC50 / D2-Ki?
(A) 88

(Q) Entry under review: Nc1nc2c(s1)CCN(CC=Cc1ccc([N+](=O)[O-])cc1)CC2 [Example 4i] . Reported α2-IC50 / D2-Ki?
(A) 157

---

Target: dopamine D2-receptors (Rattus norvegicus, UniProt P61169)
Test: affinity for dopamine D2-receptors by displacement experiments with [3H]-spiperone (rat striatum membranes)
Assay type: binding
Conditions: relative affinity for dopamine-D2 receptors compared with α2-adrenoceptors; the higher, the higher the D2/α2 selectivity
Reported α2-IC50 / D2-Ki values for a set of compounds
The response must contain the number and no unit.

Worked examples, 2 compounds total:
compound	recordedMeasurement
Nc1nc2c(s1)CCN(Cc1ccc(Cl)cc1)CC2 [Compound B, reference compound]	31.5
COc1cccc(C=CCN2CCc3nc(N)sc3CC2)c1OC	423

(Q) Form field: α2-IC50 / D2-Ki recorded for `Nc1nc2c(s1)CCN(CC=Cc1ccc(OCc3ccccc3)cc1)CC2` with dopamine D2-receptors (Rattus norvegicus, UniProt P61169) (enter value)
(A) 452

(Q) Form field: α2-IC50 / D2-Ki recorded for `COc1ccc(OC)c(C=CCN2CCc3nc(N)sc3CC2)c1` with dopamine D2-receptors (Rattus norvegicus, UniProt P61169) (enter value)
(A) 100

(Q) Form field: α2-IC50 / D2-Ki recorded for Nc1nc2c(s1)CCN(C/C=C\c1ccccc1)CC2 [Example 12b] with dopamine D2-receptors (Rattus norvegicus, UniProt P61169) (enter value)
(A) 450

---

Molecular target: serotonin-2(5-HT2)-receptors (Rattus norvegicus)
Construct: The frontal cortex was dissected out and placed in ice cold 0.32 M saccharose solution
Sequence (P14842 whole entry): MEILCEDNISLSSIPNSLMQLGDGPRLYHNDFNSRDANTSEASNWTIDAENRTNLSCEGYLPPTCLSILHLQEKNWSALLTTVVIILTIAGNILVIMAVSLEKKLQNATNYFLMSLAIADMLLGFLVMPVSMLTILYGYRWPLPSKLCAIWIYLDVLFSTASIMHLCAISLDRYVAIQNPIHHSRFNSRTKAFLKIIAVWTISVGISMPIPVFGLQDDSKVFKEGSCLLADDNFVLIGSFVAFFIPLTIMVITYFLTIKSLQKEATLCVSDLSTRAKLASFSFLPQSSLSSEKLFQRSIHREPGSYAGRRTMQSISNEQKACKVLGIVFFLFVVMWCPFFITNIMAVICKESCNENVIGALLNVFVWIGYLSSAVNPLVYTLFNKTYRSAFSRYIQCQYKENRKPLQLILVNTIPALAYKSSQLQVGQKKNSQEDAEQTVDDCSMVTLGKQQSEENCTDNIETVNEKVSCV
Experiment: affinity for serotonin-2 (5-HT2) receptors by displacement experiments with [3H]-spiperone (rat frontal cortex)
attributeMeasured: pKi
Keep in mind that pKi stands for -log10 of concentration in molar terms.

compound	recordedMeasurement
Nc1nc2c(s1)CCN(C/C=C\c1ccccc1)CC2 [Example 12b]	6.07
Nc1nc2c(s1)CCN(CC=Cc1cc3ccccc3cn1)CC2 [Example 24a]	6.25

// moving on: another record for pKi
(Q) Entry under review: Nc1nc2c(s1)CCN(CC=Cc1ccccc1)CC2 [Example 1] . Reported pKi?
(A) 6.45

---

Biological target: serotonin-1A(5-HT1A) receptors (Rattus norvegicus, UniProt P19327)
Construct: The frontal cortex was dissected out; from tissue; host or cells: rat frontal cortex homogenate (Chbb:Thom strain)
Sequence (P19327 whole entry): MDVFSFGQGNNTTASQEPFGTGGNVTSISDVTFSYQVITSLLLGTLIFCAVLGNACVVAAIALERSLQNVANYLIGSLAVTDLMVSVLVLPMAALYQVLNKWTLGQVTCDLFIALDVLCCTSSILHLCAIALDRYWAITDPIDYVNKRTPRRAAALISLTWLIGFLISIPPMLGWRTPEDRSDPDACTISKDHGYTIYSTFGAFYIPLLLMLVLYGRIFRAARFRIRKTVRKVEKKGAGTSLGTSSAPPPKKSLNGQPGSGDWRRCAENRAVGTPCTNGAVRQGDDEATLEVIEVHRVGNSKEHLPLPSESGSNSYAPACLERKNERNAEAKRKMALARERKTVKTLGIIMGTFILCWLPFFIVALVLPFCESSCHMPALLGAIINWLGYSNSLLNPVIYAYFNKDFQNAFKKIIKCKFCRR
Experiment: affinity for serotonin-1A (5-HT1A) receptors by displacement experiments with [3H]-8-OH-DPAT (rat frontal cortex)
Assay type: binding
attributeMeasured: pKi
Keep in mind that pKi stands for -log10 of concentration in molar terms.

(Q) Entry under review: O=C(c1ccc(F)cc1)C1CCN(CCn2c(=O)[nH]c3ccccc3c2=O)CC1 [Ketanserine, reference compound] . Reported pKi?
(A) 5.55
